# TARGET DESC: rVDAC1-GFP2 / rVDAC1-Rluc in T-REx-293 cells (Rattus norvegicus, UniProt Q9Z2L0)
# Construct: The rVDAC1 gene was cloned into BamHI and HindIII sites of the BRET2 plasmids (N2 variants); expressed in transfected cells; host or cells: T-REx-293 cells stably expressing hVDAC1-shRNA (T-REx-pS10)
# Sequence (Q9Z2L0 with tags, fused parts or gaps limits assumed): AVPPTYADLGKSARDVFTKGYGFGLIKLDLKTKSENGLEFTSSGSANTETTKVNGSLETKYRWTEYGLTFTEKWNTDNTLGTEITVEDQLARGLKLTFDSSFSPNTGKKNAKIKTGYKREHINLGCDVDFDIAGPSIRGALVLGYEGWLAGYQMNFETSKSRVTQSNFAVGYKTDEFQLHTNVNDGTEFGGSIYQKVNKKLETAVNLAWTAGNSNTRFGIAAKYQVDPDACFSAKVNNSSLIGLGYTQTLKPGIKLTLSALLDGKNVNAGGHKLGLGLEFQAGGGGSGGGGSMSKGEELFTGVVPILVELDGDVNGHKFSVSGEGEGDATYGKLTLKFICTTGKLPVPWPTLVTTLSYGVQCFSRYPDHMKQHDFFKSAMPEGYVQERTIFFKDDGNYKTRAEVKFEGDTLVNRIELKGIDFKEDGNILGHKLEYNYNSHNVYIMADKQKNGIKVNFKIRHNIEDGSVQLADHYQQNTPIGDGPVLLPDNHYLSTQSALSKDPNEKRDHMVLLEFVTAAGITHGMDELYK
# EXPERIMENTAL PROTOCOL: BRET2 assay of VDAC1 oligomerization induced by apoptosis inducers (Method A)
# Format: cell-based
# MEASUREMENT SETUP: test compound 10 μM, 1 h pre-incubation, STS 1 μM (3 h)
# Description: BRET2 screening may be carried out as described in the art ([…] et al., (2010) Oligomerization of the mitochondrial protein voltage-dependent anion channel is coupled to the induction of apoptosis. Mol Cell Biol 30, 5698-5709). […] The BRET2 signal represents the ratio of the GFP2 fluorescence, measured at its emission wavelength (510 nm), over the light intensity (luminescence) emitted at 395 nm. All measurements were performed using the Infinite 200 ELISA reader (Tecan). […]
Recorded BRET2, % of inhibition, STS, one value per entry.
Please state the figure in %; there is no need to write the unit.

Below, each entry is followed by its recorded BRET2, % of inhibition, STS result.
CCOc1cccc(/C=C2\NC(=S)N(c3ccccc3)C2=O)c1O    0
O=C(O)c1cc2ccccc2c2cc(Br)ccc12    0
CCOc1ccc(Nc2c3ccccc3nc3ccccc23)cc1    0
Nc1ncnc2c1cnn2C1CCCCC1    36.4
CCOc1ccc(/C=C2\CCc3ccccc3C2=O)cc1    44.1
Oc1ccc(Cc2ccc(Cl)cc2)c(O)c1    11.6

What does the record list as BRET2, % of inhibition, STS for Cc1ccc(NC(=O)Nc2nc3ccccc3s2)cc1NC(=O)Nc1nc2ccccc2s1 ?
22

What does the record list as BRET2, % of inhibition, STS for S=c1nc[nH]c2c1ncn2C1CCCC1 ?
32.6
